ASSAYED_SYSTEM: T1, RRPPGFSPF-biotin (mouse)
T1 construct: also called DAKLP-b; DAKLP-biotin
T1 peptide: RRPPGFSPF-{Biotin′}
MEASUREMENT_PROTOCOL: Biacore, biotin-peptide on SA chip;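 note: purified antibodies injected as twofold dilutions from 0.1 to 10 nM in HBS-EP over streptavidin-captured biotinylated BKR1 or BKR2 ligand peptides, with a random-peptide flow cell as reference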
Primed or numbered codes have the meaning given here. Ends that are not written are not given here. Biotin′ = not defined here
MEASURED_QUANTITY: koff (s⁻¹)
Write down the numeric answer in s⁻¹ and omit the unit.

Ask: What does the data say about its koff? Entry: humanized F151 variant HC1/LC1 (antibody, V domains shown, also called LC1xHC1) VH: EIQLVQSGPEVKKPGASVKVSCKASGYSFTDYNIYWVKQSPGKSLEWIGYFDPYNGNTGYNQKFRGKATLTVDKSSSTAFMHLSSLTSEDSAVYYCANYYRYDDHAMDYWGQGTSVTVSS VL: DIVMSQSPSSLAASVGDRVTMSCKSSQSLLYSSNQKNYLAWYQQKPGKSPKPLIYWASTRESGVPDRFTGSGSGTDFTLTISSVQAEDLAIYYCQQYYSYPWTFGGGTKLEIK
Result: 7.96e-06

Ask: Record: humanized F151 variant HC2a/LC2a (antibody, human IgG1, V domains shown, also called LC2axHC2a) VH: QIQLVQSGAEVKKPGASVKVSCKASGYSFTDYNIYWVKQSPGKGLEWIGYFDPYNGNTGYNQKFRGKATLTVDKSSSTAYMHLSSLTSEESAVYYCANYYRYDDHAMDYWGQGTSVTVSS VL: DIVMTQSPSSLSASVGDRVTISCKSSQSLLYSSNQKNYLAWYQQKPGKSPKPLIYWASTRESGVPDRFSGSGSGTDFTLTISSVQAEDLATYYCQQYYSYPWTFGGGTKLEIK
Result: 5.67e-06

Ask: Next record, please: humanized F151 variant HC2b/LC2a (antibody, human IgG1, V domains shown, also called LC2axHC2b) VH: QIQLVQSGAEVKKPGASVKVSCKASGYSFTDYNIYWVKQSPGKGLEWIGYFDPYNGNTGYNEKFRGKATLTVDKSSSTAYMHLSSLTSEESAVYYCANYYRYDDHAMDYWGQGTSVTVSS VL: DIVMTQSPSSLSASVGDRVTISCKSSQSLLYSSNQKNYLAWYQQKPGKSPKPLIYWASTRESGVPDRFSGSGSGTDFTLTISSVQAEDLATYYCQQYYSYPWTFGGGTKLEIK
Result: 1.3e-05

Ask: Subsequent entry: humanized F151 variant HC2c/LC2b (antibody, human IgG1, V domains shown, also called LC2bxHC2c) VH: QIQLVQSGAEVKKPGASVKVSCKASGYSFTDYNIYWVKQSPGKGLEWIGYFDPYNGNTGYNQKFRGKATLTVDKSSSTAYMHLSSKTSEESAVYYCANYYRYDDHAMDYWGQGTSVTVSS VL: DIVMTQSPSSLSASVGDRVTISCKSSQSLLYSSNQKNYLAWYQQKPGKSPKPLIYWASTRESGVPDRFSGSGSGTDFTLTISSVQAEDKATYYCQQYYSYPWTFGGGTKLEIK
Result: 1.1e-05
